Attribution: ChEMBL document CHEMBL1201861

IC50 for assorted molecules
Test system: A2058;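 also: reduction of A2058 cell growth, read out with a viability assay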
Assay: cells
Format: functional, cell-based
Conditions: Homo sapiens
Description: SANGER: Inhibition of human A2058 cell growth in a cell viability assay.
All answers are understood in µM, so give the number only.

>  <SMILES_RECORD>
CCCS(=O)(=O)Nc1ccc(F)c(C(=O)c2c[nH]c3ncc(Cl)cc23)c1F

>  <UNIT_TAG>
µM

>  <IC50>
4.72

$$$$
>  <SMILES_RECORD>
C[C@]12O[C@H](C[C@]1(O)CO)n1c3ccccc3c3c4c(c5c6ccccc6n2c5c31)CNC4=O

>  <UNIT_TAG>
µM

>  <IC50>
0.245

$$$$
>  <SMILES_RECORD>
C/C=C(/C)C(=O)O[C@H]1C(C)=C2[C@H]([C@@H]1OC(=O)CCCCCCC)[C@@](C)(OC(C)=O)C[C@H](OC(=O)CCC)[C@@]1(O)[C@H]2OC(=O)[C@@]1(C)O

>  <UNIT_TAG>
µM

>  <IC50>
0.00269

$$$$

Attention now turns to another entry.
Query for A2058: what IC50 does the record show for Cn1c(=O)n(-c2ccc(C(C)(C)C#N)cc2)c2c3cc(-c4cnc5ccccc5c4)ccc3ncc21 ? 0.0332

====

Tested on: ABC-1;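 also: growth inhibition of human ABC-1 cells, read out by a cell viability assay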
Assay: cells
Type: functional, cell-based
Details: Homo sapiens
Description: SANGER: Inhibition of human ABC-1 cell growth in a cell viability assay.
MEASURED_QUANTITY: IC50 (µM)
All answers are understood in µM, so give the number only.

>  <SMILES_RECORD>
CC[C@@]1(O)C(=O)OCc2c1cc1n(c2=O)Cc2cc3ccccc3nc2-1

>  <RESULT>
0.00347

$$$$

I have this compound here, C/C=C(/C)C(=O)O[C@H]1C(C)=C2[C@H]([C@@H]1OC(=O)CCCCCCC)[C@@](C)(OC(C)=O)C[C@H](OC(=O)CCC)[C@@]1(O)[C@H]2OC(=O)[C@@]1(C)O , and I need its recorded IC50. 0.00319

====

System: Lu-65
Experiment: cells
Format: functional, cell-based
Conditions: Homo sapiens
Description: SANGER: Inhibition of human LU-65 cell growth in a cell viability assay.
pIC50: −log10 of the molar value.
MEASURED_QUANTITY: pIC50

Some solved cases for reference:
>  <COMPOUND>
N#C/C(=C1/Nc2ccccc2S1)c1ccnc(NCCc2cccnc2)n1

>  <RESULT>
< 5.10

$$$$
>  <COMPOUND>
CC(=O)c1c(C)c2cnc(Nc3ccc(N4CCNCC4)cn3)nc2n(C2CCCC2)c1=O [PALBOCICLIB]

>  <RESULT>
< 5.40

$$$$
>  <COMPOUND>
CC[C@]1(O)C[C@@H]2CN(CCc3c([nH]c4ccccc34)[C@@](C(=O)OC)(c3cc4c(cc3OC)N(C)[C@H]3[C@@](O)(C(=O)OC)[C@H](OC(C)=O)[C@]5(CC)C=CCN6CC[C@]43[C@@H]65)C2)C1 [VINBLASTINE]

>  <RESULT>
< 7.00

$$$$
>  <COMPOUND>
COc1cc(C)c(Sc2cnc(NC(=O)c3ccc(CNC(C)C(C)(C)C)cc3)s2)cc1C(=O)N1CCN(C(C)=O)CC1 (stereo not drawn)

>  <RESULT>
< 4.99

$$$$
>  <COMPOUND>
CCn1c(-c2nonc2N)nc2cnc(Oc3cccc(NC(=O)c4ccc(OCCN5CCOCC5)cc4)c3)cc21 [GSK-269962A]

>  <RESULT>
< 5.60

$$$$
>  <COMPOUND>
CCCS(=O)(=O)Nc1ccc(F)c(C(=O)c2c[nH]c3ncc(Cl)cc23)c1F [PLX-4720]

>  <RESULT>
< 5.00

$$$$
>  <COMPOUND>
C[C@]1(c2nc3c(C(N)=O)cccc3[nH]2)CCCN1 [VELIPARIB]

>  <RESULT>
< 5.30

$$$$

Attention now turns to another entry.
I have this compound here, Fc1cc(-c2cc[nH]/c(=N/c3ccc(-n4cnc(N5CCOCC5)n4)cc3)n2)cc(N2CCOCC2)c1 , and I need its recorded pIC50. 5.78

====

Test system: NCI-H128
Test: SANGER: Inhibition of human NCI-H128 cell growth in a cell viability assay.
Assay type: functional, cell-based
IC50 for assorted molecules

Some solved cases for reference:
>  <MOLECULE>
Cc1n[nH]c2ccc(-c3cncc(OC[C@@H](N)Cc4c[nH]c5ccccc45)c3)cc12

>  <TGT>
NCI-H128

>  <IC50>
> 1020 nM

$$$$
>  <MOLECULE>
CCNc1cc(N[C@H]2CC[C@@H](O)CC2)nc(Nc2ccc3c(ccn3Cc3ccccc3)c2)n1

>  <TGT>
NCI-H128

>  <IC50>
> 5120 nM

$$$$

Attention now turns to another entry.
Query for NCI-H128: what IC50 does the record show for CCn1c(-c2nonc2N)nc2cnc(Oc3cccc(NC(=O)c4ccc(OCCN5CCOCC5)cc4)c3)cc21 [GSK-269962A] ? > 2500 nM

====

Tested on: SAOS-2;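 also: growth inhibition of human Saos-2 cells determined by a cell viability assay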
Experiment: cells
Assay type: functional, cell-based
Conditions: Homo sapiens
Description: SANGER: Inhibition of human Saos-2 cell growth in a cell viability assay.
IC50 for assorted compounds

>  <COMPOUND>
NC(=O)c1ncn([C@@H]2O[C@H](COP(=O)(O)O)[C@@H](O)[C@H]2O)c1N

>  <IC50>
> 2000 µM

$$$$
>  <COMPOUND>
CC[C@]1(O)C[C@@H]2CN(CCc3c([nH]c4ccccc34)[C@@](C(=O)OC)(c3cc4c(cc3OC)N(C)[C@H]3[C@@](O)(C(=O)OC)[C@H](OC(C)=O)[C@]5(CC)C=CCN6CC[C@]43[C@@H]65)C2)C1 [VINBLASTINE]

>  <IC50>
0.0323 µM

$$$$
>  <COMPOUND>
Cn1c(=O)n(-c2ccc(C(C)(C)C#N)cc2)c2c3cc(-c4cnc5ccccc5c4)ccc3ncc21 [DACTOLISIB]

>  <IC50>
0.179 µM

$$$$
>  <COMPOUND>
O=c1cc(N2CCOCC2)oc2c(-c3cccc4c3sc3ccccc34)cccc12

>  <IC50>
> 2 µM

$$$$
>  <COMPOUND>
O=c1[nH]c2ccccc2n1C1CCN(Cc2ccc(-c3nc4cc5[nH]cnc5cc4nc3-c3ccccc3)cc2)CC1

>  <IC50>
> 2.56 µM

$$$$
>  <COMPOUND>
N#C/C(=C1/Nc2ccccc2S1)c1ccnc(NCCc2cccnc2)n1

>  <IC50>
> 8 µM

$$$$
>  <COMPOUND>
C/C=C(/C)C(=O)O[C@H]1C(C)=C2[C@H]([C@@H]1OC(=O)CCCCCCC)[C@@](C)(OC(C)=O)C[C@H](OC(=O)CCC)[C@@]1(O)[C@H]2OC(=O)[C@@]1(C)O [THAPSIGARGIN]

>  <IC50>
0.0147 µM

$$$$

Attention now turns to another entry.
I have this compound here, C/C(O)=C(\C#N)C(=O)Nc1cc(Br)ccc1Br , and I need its recorded IC50. > 16 µM

====

System: Kasumi 1
Experiment: cells
Type: functional, cell-based
Conditions: Homo sapiens
Description: SANGER: Inhibition of human KASUMI-1 cell growth in a cell viability assay.
pIC50: −log10 of the molar value.
pIC50 for assorted compounds

Some solved cases for reference:
>  <COMPOUND>
Cc1nc(Nc2ncc(C(=O)Nc3c(C)cccc3Cl)s2)cc(N2CCN(CCO)CC2)n1

>  <RESULT>
< 5.89

$$$$
>  <COMPOUND>
Fc1cc(-c2cc[nH]/c(=N/c3ccc(-n4cnc(N5CCOCC5)n4)cc3)n2)cc(N2CCOCC2)c1

>  <RESULT>
6.47

$$$$
>  <COMPOUND>
Cc1n[nH]c2ccc(-c3cncc(OC[C@@H](N)Cc4c[nH]c5ccccc45)c3)cc12

>  <RESULT>
< 5.99

$$$$
>  <COMPOUND>
Cn1cc(/C=C2\C(=O)Nc3cccnc32)c2ccccc21

>  <RESULT>
< 5.70

$$$$
>  <COMPOUND>
Cc1ccc(NC(=O)c2cccc(C(C)(C)C#N)c2)cc1Nc1ccc2ncn(C)c(=O)c2c1

>  <RESULT>
< 5.40

$$$$

Query for Kasumi 1: what pIC50 does the record show for COc1cc(C)c(Sc2cnc(NC(=O)c3ccc(CNC(C)C(C)(C)C)cc3)s2)cc1C(=O)N1CCN(C(C)=O)CC1 (stereo not drawn) ? < 4.99

Quick one: CC[C@@]1(O)C(=O)OCc2c1cc1n(c2=O)Cc2cc3ccccc3nc2-1 8.39

Quick one: CC(C)=CC[C@@H](O)C1=CC(=O)c2c(O)ccc(O)c2C1=O 6.91

====

Test system: CAL-54;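 also: growth inhibition of CAL-54 cells, read out by a viability measurement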
Assay: cells
Format: functional, cell-based
Details: Homo sapiens
Description: SANGER: Inhibition of human CAL-54 cell growth in a cell viability assay.
MEASURED_QUANTITY: IC50 (µM)
All answers are understood in µM, so give the number only.

>  <COMPOUND>
CC[C@@]1(O)C(=O)OCc2c1cc1n(c2=O)Cc2cc3ccccc3nc2-1 [CAMPTOTHECIN]

>  <UNIT_TAG>
µM

>  <IC50>
0.00476

$$$$
>  <COMPOUND>
CO[C@@]12[C@H](COC(N)=O)C3=C(C(=O)C(C)=C(N)C3=O)N1C[C@@H]1N[C@@H]12 [MITOMYCIN]

>  <UNIT_TAG>
µM

>  <IC50>
1.84

$$$$
>  <COMPOUND>
CC[C@]1(O)C[C@@H]2CN(CCc3c([nH]c4ccccc34)[C@@](C(=O)OC)(c3cc4c(cc3OC)N(C)[C@H]3[C@@](O)(C(=O)OC)[C@H](OC(C)=O)[C@]5(CC)C=CCN6CC[C@]43[C@@H]65)C2)C1 [VINBLASTINE]

>  <UNIT_TAG>
µM

>  <IC50>
0.0606

$$$$

I have this compound here, C[C@]12O[C@H](C[C@]1(O)CO)n1c3ccccc3c3c4c(c5c6ccccc6n2c5c31)CNC4=O [LESTAURTINIB] , and I need its recorded IC50. 0.178
